Target: T1, Pfs230 D1D2 (aa 587–889) (Plasmodium falciparum, UniProt P68874 587-889)
T1 chain: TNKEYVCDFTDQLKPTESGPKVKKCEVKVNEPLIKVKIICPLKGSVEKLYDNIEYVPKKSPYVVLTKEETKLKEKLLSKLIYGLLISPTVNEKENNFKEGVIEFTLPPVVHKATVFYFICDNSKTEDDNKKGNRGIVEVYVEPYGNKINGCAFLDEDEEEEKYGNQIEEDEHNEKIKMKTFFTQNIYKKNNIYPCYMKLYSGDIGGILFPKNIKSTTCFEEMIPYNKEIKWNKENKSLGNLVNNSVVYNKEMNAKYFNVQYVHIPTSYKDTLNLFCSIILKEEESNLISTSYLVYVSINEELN
Assay: BLI; representative curve
# note: boundary value 5 nM maps to 0.0; Kd below it maps to 1.0

Worked cases, answers included:
BINDER: nanobody G2 (VHH) VHH: QVQLQESGGGLVQAGGSLRLSCAASGRTFSNYFMGWFRQAPGKEREFVAAVSWSGGSTYYADSVKGRLTISRDNAKNTVYLQMNSLKPEDTAVYYCAAGERYFPMEPRRGYDYWGQGTQVTVSS
CLASS_ASSIGNMENT: 1.0

BINDER: nanobody E1 (VHH) VHH: QVQLQESGGGLVQPGGSLRLSCAASGRTFSSYFMGWFRQAPGKGRVFVASISWSGGSTYYADSVKGRFTISRDNAENTVYLQMNSLKPEDTAVYYCAAGTRATPLDWASGMDYWGKGTQVTVSS
CLASS_ASSIGNMENT: 1.0

BINDER: nanobody G5 (VHH) VHH: QVQLQESGGGLVQAGGSLRLSCAASGRTFNDYAMYWFRQAPGKEREFVADITWSGSSTYYADSVKGRFTISRDNAKNTVFLQMNSLKPEDTALYYCAADSRYYGIGIGTPRYWGQGTQVTVSS
CLASS_ASSIGNMENT: 0.0

BINDER: nanobody A11 (VHH) VHH: QVQLQESGGGLVQPGESLRLSCAASGRTSSSYAMGWFRQAPGKEREFVASISWSGGSTYYADSVKGRFTLSRDNAKNTVYLQMNSLKPEDTAVYYCAADGIFYSDYPLSVDDFHSWGQGTQVTVSS
CLASS_ASSIGNMENT: 1.0

BINDER: nanobody D6 (VHH) VHH: QVQLQESGGGLVQAGDSLRLSCAASGRTFSSYFMGWFRQAPGKEREFVAAISWSGGSTYYADSVKGRFTISRDNVKNTVYLQMNSLEPEDAAVYYCAGGGSYYPMSPRNGMDYWGKGTQVTVSS
CLASS_ASSIGNMENT: 1.0

Please determine if nanobody F10 (VHH) VHH: QVQLQESGGGLVQAGGSLRLSCAASGRTFSDYFMGWFRQAPGKEREFVAAVSWSGGSTYYADSVKGRFTISRDNAKNTVFLQMNSLKPEDTAVYYCAGGGSYYPMSPYDGMDYWGKGTQVTVSS is below 5 nM in terms of Kd.
1.0

Please determine if nanobody A10 (VHH) VHH: QVQLQESGGGLVQAGSSLRLSCAASGGTFSNYAMGWFRQAPGKEREFVAAIGWSGGTYYTDSVEGRFTISRDNAKNTVYLQMNSLKPEDTAVYYCAAKRSGSSWSERGYDYWGQGTQVTVSS is below 5 nM in terms of Kd.
0.0

Please determine if nanobody B4 (VHH) VHH: QVQLQESGGGLVQPGGSLRLSCAASGFTLDYYGIGWFRQAPGKEREGVSCISSSDGSTYYADSVKGRFTISRDNAKNTVYLQMNSLKPEDTAVYYCAADLTGIGCTTAQAMGVIGDFGDFGSWGQGTQVTVSS is below 5 nM in terms of Kd.
1.0

Sourced from paper PMC9788556
